src = patent US10278942B2

Biological target: HIF-2α HIS TAG-PASB Domain (Homo sapiens, UniProt Q99814)
Construct: 100 nM HIF-2α HIS TAG-PASB Domain
Sequence (Q99814 240-350 limits assumed): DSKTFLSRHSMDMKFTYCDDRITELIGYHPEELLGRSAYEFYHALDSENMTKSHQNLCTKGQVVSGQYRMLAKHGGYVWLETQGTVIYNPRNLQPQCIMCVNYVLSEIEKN
Assay: HIF-2α Scintillation Proximity Assay (SPA)
Type: binding
Conditions: read-out: Scintillation Proximity Assay IC50
Each entry below lists one item and its recorded IC50 value.

Examples with answers:
compound	readout_value
O=S(=O)(c1ccc(CCO)c2c1C(O)C(F)(F)C2)C(F)(F)F (stereo not drawn) [Compound 520]	> 1000 nM
O=S(=O)(c1ccc(Oc2ccc(F)c(Br)c2)c2c1[C@H](O)C(F)(F)C2)C(F)F [Compound 194]	< 50 nM
C=CCN=S(=O)(c1ccc(Oc2cc(F)cc(C#N)c2)c2c1[C@H](O)C(F)(F)C2)C(F)(F)F (stereo partly drawn) [Compound 308]	50 to 249 nM

q: // lookup IC50 for CCOc1ccc(S(=O)(=O)C(F)(F)F)c2c1CCC2O (stereo not drawn) [Compound 589]
a: > 1000 nM

q: // lookup IC50 for CS(=O)(=O)c1ccc(Nc2ccc(F)cc2)c2c1C(O)CC2 (stereo not drawn) [Compound 497]
a: > 1000 nM

q: // lookup IC50 for COc1ccc(-c2cn[nH]c2)c2c1CC(F)(F)C2O (stereo not drawn) [Compound 680]
a: > 1000 nM

q: // lookup IC50 for O=S(=O)(c1ccc(OCC2COC2)c2c1[C@H](O)C(F)(F)C2)C(F)(F)F [Compound 713]
a: < 50 nM

q: // lookup IC50 for O=S(=O)(c1ccc(CC2CCCCC2)c2c1C(O)CC2)C(F)(F)F (stereo not drawn) [Compound 508]
a: > 1000 nM

q: // lookup IC50 for O=S(=O)(c1ccc(Oc2cc(F)cc(F)c2)c2c1[C@H](O)CC2)C(F)(F)F [Compound 55]
a: < 50 nM

----------
Target: HIF-2α HIS TAG-PASB Domain (Homo sapiens, UniProt Q99814)
Construct: 100 nM HIF-2α HIS TAG-PASB Domain
Assay: HIF-2α Scintillation Proximity Assay (SPA)
Type: binding
Settings: read-out: Scintillation Proximity Assay IC50
Method: The total assay volume was about 100 μL in the following configuration: 2 μL compound in 100% DMSO, 88 μL buffer with protein and probe and 10 μL of SPA beads. […] The percent inhibition was determined and IC50 values were calculated using the Dotmatics system based on the following equation: % inhibition=[(high control−sample)/(high control−low control)]×100.
pIC50: −log10 of the molar value.
experimental_readout: pIC50

compound	pIC50
CS(=O)(=O)c1ccc(Oc2cc(F)cc(C#N)c2)c(C(F)F)c1C#N	6.60 to 7.30
NC1c2cc(Oc3cc(F)cc(Cl)c3)ccc2S(=O)(=O)C1(F)F (stereo not drawn)	6.60 to 7.30
N#Cc1cc(F)cc(Oc2ccc(S(=N)(=O)C(F)(F)F)cc2C#N)c1 (stereo not drawn)	< 6.00

q: // lookup pIC50 for O=S(=O)(c1ccc(CCO)c2c1C(O)CC2)C(F)(F)F (stereo not drawn)
a: < 6.00

q: // lookup pIC50 for Cc1c(S(=O)(=O)C(F)F)ccc(Oc2cc(F)cc(Cl)c2)c1C#N
a: > 7.30

q: // lookup pIC50 for N#Cc1cncc(Oc2ccc(S(=N)(=O)C(F)(F)F)c3c2CC(F)(F)[C@H]3O)c1 (stereo partly drawn)
a: > 7.30

q: // lookup pIC50 for CS(=O)(=O)c1ccc(Sc2cc(F)cc(Cl)c2)c2c1[C@H](O)C(F)(F)[C@@H]2F
a: > 7.30

q: // lookup pIC50 for CS(=O)(=O)c1ccc(Oc2cc(F)cc(Cl)c2)c(C(F)F)c1C#N
a: > 7.30

q: // lookup pIC50 for O=S(=O)(CF)c1ccc(Oc2cccc3sccc23)c2c1C(O)CC2 (stereo not drawn)
a: < 6.00

q: // lookup pIC50 for CC1CC(Oc2ccc(S(=O)(=O)C(F)(F)F)c3c2CCC3O)CCO1 (stereo not drawn)
a: < 6.00

q: // lookup pIC50 for O=S(=O)(c1ccc(Oc2cc(F)cc(F)c2)c2c1[C@H](O)CC2)C(F)F
a: > 7.30

----------
Molecular target: HIF-2α HIS TAG-PASB Domain (Homo sapiens)
Construct: 100 nM HIF-2α HIS TAG-PASB Domain
Assay: HIF-2α Scintillation Proximity Assay (SPA)
Assay type: binding
Settings: read-out: Scintillation Proximity Assay IC50
experimental_readout: IC50

Examples with answers:
compound	measured_target	experimental_readout	readout_value
CS(=O)(=O)c1ccc(Oc2cncc(C#N)c2)c2c1[C@H](O)C(F)(F)C2	HIF-2α HIS TAG-PASB Domain (Homo sapiens)	IC50	50 to 249 nM
CS(=O)(=O)c1ccc(Oc2cncc(C#N)c2)c2c1[C@H](O)C(F)(F)[C@@H]2F	HIF-2α HIS TAG-PASB Domain (Homo sapiens)	IC50	< 50 nM
O=S(=O)(c1ccc(CCCO)c2c1C(O)CC2)C(F)(F)F (stereo not drawn)	HIF-2α HIS TAG-PASB Domain (Homo sapiens)	IC50	250 to 1000 nM
O/N=C1/c2c(C(F)(F)F)ccc(OCCCF)c2CC1(F)F	HIF-2α HIS TAG-PASB Domain (Homo sapiens)	IC50	> 1000 nM

q: // lookup IC50 for CS(=O)(=O)c1ccc(C(F)(F)CO)c2c1C(O)C(F)(F)C2 (stereo not drawn)
a: > 1000 nM

q: // lookup IC50 for N#Cc1cc(F)cc(Oc2ccc3c(c2F)C(O)C(F)(F)S3(=O)=O)c1 (stereo not drawn)
a: 250 to 1000 nM

q: // lookup IC50 for O=S1(=O)CCc2c1ccc(Oc1cc(F)cc(Cl)c1)c2Br
a: > 1000 nM

q: // lookup IC50 for CC(C)(C#N)COc1ccc(S(=O)(=O)C(F)(F)F)c2c1CCC2O (stereo not drawn)
a: 50 to 249 nM

q: // lookup IC50 for O=S(=O)(c1ccc(Oc2c(F)cccc2F)c(Br)c1)C(F)(F)F
a: > 1000 nM

----------
Each entry below lists one item and its recorded pIC50 value.
Target: HIF-2α HIS TAG-PASB Domain (Homo sapiens, UniProt Q99814)
Construct: 100 nM HIF-2α HIS TAG-PASB Domain
Test: HIF-2α Scintillation Proximity Assay (SPA)
Type: binding
Conditions: read-out: Scintillation Proximity Assay IC50
pIC50: −log10 of the molar value.

Examples with answers:
molecule	readout_value
C#CCOc1ccc(S(=O)(=O)C(F)(F)F)c2c1CC(F)(F)[C@H]2O	6.00 to 6.60
N#Cc1cc(Oc2ccc(S(=O)(=O)C(F)F)c3c2CC(F)(F)C3=O)ccc1F	< 6.00
N#CN=S(=O)(CF)c1ccc(Oc2cc(F)cc(C#N)c2)c2c1[C@H](O)CC2 (some centres unmarked)	< 6.00
N#CC1(COc2ccc(S(=O)(=O)C(F)(F)F)c3c2CCC3O)CC1 (centres unmarked)	< 6.00

q: // lookup pIC50 for O[C@H]1c2c(C(F)(F)F)ccc(OC(F)F)c2CC1(F)F
a: < 6.00

q: // lookup pIC50 for O=S1(=O)c2ccc(OCc3ccccc3)c(C(F)F)c2C(O)C1(F)F (centres unmarked)
a: 6.00 to 6.60

q: // lookup pIC50 for N#Cc1cc(F)cc(Oc2ccc(S(N)(=O)=O)c3c2[C@@H](O)C(F)(F)[C@H]3O)c1
a: < 6.00

q: // lookup pIC50 for NC1c2c(ccc(Oc3cc(F)cc(F)c3)c2C(F)F)S(=O)(=O)C1(F)F (centres unmarked)
a: > 7.30

q: // lookup pIC50 for COCC(C)Oc1ccc(S(=O)(=O)C(F)(F)F)c2c1CC(F)(F)C2O (centres unmarked)
a: > 7.30

----------
Molecular target: HIF-2α HIS TAG-PASB Domain (Homo sapiens)
Construct: 100 nM HIF-2α HIS TAG-PASB Domain
Assay: HIF-2α Scintillation Proximity Assay (SPA)
Type: binding
Conditions: read-out: Scintillation Proximity Assay IC50
experimental_readout: IC50

Examples with answers:
compound	IC50
NC(=O)C1CCc2c(OCC(F)F)ccc(C(=O)O)c21 (stereo not shown)	> 1000 nM
CS(=O)(=O)c1ccc(OCC2(C#N)CC2)c2c1[C@H](O)C(F)(F)[C@@H]2F	250 to 1000 nM
CS(=O)(=O)c1ccc(OC2CCC2)c2c1[C@H](O)C(F)(F)[C@@H]2F	< 50 nM

Next item in the queue.
q: // lookup IC50 for O=S(=O)(c1ccc(O[C@H]2C[C@H](O)C2)c2c1C(O)C(F)(F)C2)C(F)(F)F (stereo partly shown)
a: 250 to 1000 nM

----------
Target: HIF-2α HIS TAG-PASB Domain (Homo sapiens, UniProt Q99814)
Construct: 100 nM HIF-2α HIS TAG-PASB Domain
Assay: HIF-2α Scintillation Proximity Assay (SPA)
Assay type: binding
Settings: read-out: Scintillation Proximity Assay IC50
experimental_readout: IC50

molecule	IC50
N#CN=S(=O)(CF)c1ccc(Oc2cc(F)cc(C#N)c2)c2c1[C@H](O)C(F)(F)C2 (some centres unmarked) [Compound 285]	50 to 249 nM

q: // lookup IC50 for C=CCN=S(=O)(c1ccc(Oc2cc(F)cc(C#N)c2)c2c1[C@H](O)C(F)(F)C2)C(F)(F)F (some centres unmarked) [Compound 307]
a: 250 to 1000 nM

q: // lookup IC50 for N#CN=S(=O)(CF)c1ccc(Oc2cc(F)cc(C#N)c2)c2c1[C@H](O)C(F)(F)C2 (some centres unmarked) [Compound 286]
a: < 50 nM

q: // lookup IC50 for O=S(=O)(c1ccc(Oc2cncc(F)c2)c2c1[C@H](O)CC2)C(F)F [Compound 5]
a: 250 to 1000 nM
